# assay-name: The drug is tested on Z-003 corresponding to pig gut metagenome with ENA study accession number: PRJEB37062 and ENA sample accession number: ERS12561803 for biotransformation under anaerobic condition. The drug concentrations were measured over 9 timepoints collected between 0 and 24 hours of incubation by liquid-chromatography-coupled mass spectrometry (LC–MS); also: call rule not given here
# assay-context: 2 µM
value-type: Bacterial Biotransformation

O=c1[nH]c2ccccc2n1CCCN1CCC(n2c(=O)[nH]c3cc(Cl)ccc32)CC1: Compound NOT metabolized
CC[C@H](C)C(=O)O[C@H]1C[C@@H](C)C=C2C=C[C@H](C)[C@H](CC[C@@H]3C[C@@H](O)CC(=O)O3)[C@H]21: Compound NOT metabolized
NS(=O)(=O)c1cc2c(cc1Cl)N=C(CSCc1ccccc1)NS2(=O)=O [BENZTHIAZIDE]: Compound NOT metabolized
CS(=O)(=O)O.OC(CCN1CCCCC1)(c1ccccc1)c1ccccc1 [PRIDINOL METHANESULFONATE]: Compound metabolized
CC(=O)OCC(=O)[C@@]12N=C(C)O[C@@H]1C[C@H]1[C@@H]3CCC4=CC(=O)C=C[C@]4(C)[C@H]3[C@@H](O)C[C@@]12C: Compound metabolized
CCN(CC)CCOCCOC(=O)C1(c2ccccc2)CCCC1.O=C(O)CC(O)(CC(=O)O)C(=O)O [CARBETAPENTANE CITRATE]: Compound metabolized
CC(C)(C#N)c1cc(Cn2cncn2)cc(C(C)(C)C#N)c1: Compound metabolized
N#Cc1ccc(C(c2ccc(C#N)cc2)n2cncn2)cc1: Compound NOT metabolized
COc1c2occc2cc2ccc(=O)oc12: Compound metabolized
COc1cc2nc(N(C)CCCNC(=O)C3CCCO3)nc(N)c2cc1OC (stereo not given): Compound metabolized

Request: I'd like to know its Bacterial Biotransformation. The compound in question is "CCCCc1nc(Cl)c(CO)n1Cc1ccc(-c2ccccc2-c2nn[nH]n2)cc1"
Result: Compound NOT metabolized

Request: I'd like to know its Bacterial Biotransformation. The compound in question is "CC(C)c1nc(CN(C)C(=O)N[C@H](C(=O)N[C@@H](Cc2ccccc2)C[C@H](O)[C@H](Cc2ccccc2)NC(=O)OCc2cncs2)C(C)C)cs1"
Result: Compound metabolized

Request: I'd like to know its Bacterial Biotransformation. The compound in question is CC(C)(C)NC[C@H](O)COc1ccccc1C1CCCC1.CC(C)(C)NC[C@H](O)COc1ccccc1C1CCCC1.O=S(=O)(O)O [PENBUTOLOL SULFATE]
Result: Compound metabolized

Request: I'd like to know its Bacterial Biotransformation. The compound in question is C[C@@H](CO)NC(=O)[C@@H]1C=C2c3cccc4[nH]cc(c34)C[C@H]2N(C)C1.O=C(O)/C=C\C(=O)O [ERGONOVINE MALEATE]
Result: Compound NOT metabolized

Request: I'd like to know its Bacterial Biotransformation. The compound in question is "O=C1[C@H](CC[C@H](O)c2ccc(F)cc2)[C@@H](c2ccc(O)cc2)N1c1ccc(F)cc1"
Result: Compound NOT metabolized

###

# assay-name: The drug is tested on Z-009 corresponding to pig gut metagenome with ENA study accession number: PRJEB37062 and ENA sample accession number: ERS12561809 for biotransformation under anaerobic condition. The drug concentrations were measured over 9 timepoints collected between 0 and 24 hours of incubation by liquid-chromatography-coupled mass spectrometry (LC–MS)
# assay-context: 2 µM
value-type: Bacterial Biotransformation

Cc1ccccc1N1C(=O)c2cc(S(N)(=O)=O)c(Cl)cc2NC1C (centres undefined): Compound NOT metabolized
CCC1(c2ccc(N)cc2)CCC(=O)NC1=O (centres undefined) [AMINOGLUTETHIMIDE]: Compound metabolized
CNS(=O)(=O)Cc1ccc2[nH]cc(CCN(C)C)c2c1.O=C(O)CCC(=O)O [SUMATRIPTAN SUCCINATE]: Compound NOT metabolized
CC(=O)OCC(=O)[C@@]1(O)[C@@H](C)C[C@H]2[C@@H]3CCC4=CC(=O)C=C[C@]4(C)[C@@]3(F)[C@@H](O)C[C@@]21C [BETAMETHASONE ACETATE]: Compound metabolized
